Experiment: qHTS assay to identify small molecule antagonists of the peroxisome proliferator-activated receptor delta (PPARd) signaling pathway - cell viability counter screen (AID 743213); also: nearly all actives have a fitted effect of over 50% in size
Details: PPARd-bla HEK293H viability, CellTiter-Glo luminescence, 17 h; series mostly up to 62 µM
Inconclusive results are not listed. Activity calls are given as the source filed them. Calls follow the shape of the dose curve; as a rule, active = well fitted cell-killing curve with a large enough effect in the repeat runs; inconclusive = weak or mixed curves; inactive = no such curve, though single readings can be large or run the other way.
Entry note: the call must match one of Y (active), N (inactive)

The following compounds have reported results that may help.
## Task Tell me the recorded outcome of this test for "CCOC(=O)CC(=O)CCl" .
## Result N

## Task Please state the recorded outcome for this compound: "BrC(Br)Br"
## Result N

## Task Short answer needed: outcome of this test for "CCN" ?
## Result N

## Task Given CCCCCCCCCCCCCN1CC(C)OC(C)C1 (stereo unspecified) , state the outcome it received in this test.
## Result N

## Task What classification did "c1ccc2c(c1)[nH]c1cnccc12" end up with in this test?
## Result N

New cases:
## Task Call for entry CCOc1cc(C(C)(C)C)ccc1C1COC(c2c(F)cccc2F)=N1 (stereo unspecified) :
## Result Y

## Task Just curious, what result did "C[C@@H]1O[C@@H](O[C@@H]2C=C3CC[C@@H]4[C@H](CC[C@]5(C)[C@@H](c6ccc(=O)oc6)CC[C@]45O)[C@@]3(C)CC2)[C@H](O)[C@H](O)[C@H]1O" get here?
## Result Y

## Task For this compound, state the assay outcome: "CC(C)[C@H](C(=O)O[C@H](C#N)c1cccc(Oc2ccccc2)c1)c1ccc(Cl)cc1"
## Result N

## Task Recorded test call requested for "CN(C)S(=O)(=O)N(SC(F)(Cl)Cl)c1ccccc1"
## Result Y

## Task In this assay, the call recorded for "CCCCCCCCCC[N+](C)(C)CCCCCCCCCC" was what?
## Result Y

## Task Recorded test call requested for "CC(C)CCCCCOC(=O)c1ccccc1C(=O)OCCCCCC(C)C"
## Result N

---

Experiment: Caspase-3/7 induction in HepG2 cells by small molecules, qHTS cell viability counter screen (AID 1346981); also: nearly all actives have a fitted effect of over 30% in size
Conditions: CellTiter-Fluor fluorescence, 17 h; series mostly up to 92.4 µM
Records with an inconclusive call do not appear. Calls of active or inactive are those of the source. The call rests on the fitted dose curve; in most records, active means well fitted cell-killing curve with a large enough effect in the repeat runs; inconclusive means weak or mixed curves, or effect the other way; inactive means flat fitted curve, though single readings scatter.
Your answer must be one of the following: active, inactive

## Task Query: recorded result category for "CC[C@H](C)[C@H]1O[C@]2(C=C[C@@H]1C)C[C@@H]1C[C@@H](C/C=C(\C)[C@@H](O[C@H]3C[C@H](OC)[C@@H](O[C@H]4C[C@H](OC)[C@@H](O)[C@H](C)O4)[C@H](C)O3)[C@@H](C)/C=C/C=C3\CO[C@@H]4[C@H](O)C(C)=C[C@@H](C(=O)O1)[C@]34O)O2" in this test
## Result active

Note: attention shifts to another entry.
## Task What outcome does the record of this test show for CC(C)C1CCC(Cc2ccc(Cl)cc2)C1(O)Cn1cncn1 (stereo unspecified) ?
## Result active

---

Target: Estrogen receptor (Homo sapiens)
Test: qHTS assay to identify small molecule antagonists of the estrogen receptor alpha (ER-alpha) signaling pathway (AID 743069)
Conditions: HEK293 ER-alpha-UAS-bla, beta-lactamase ratio, antagonist mode; series mostly up to 69.4 µM
Records with an inconclusive call do not appear. The source made the active and inactive calls. Calls come from the whole dose curve; as a rule, active = well fitted curve in the direction sought with a large enough effect in the signal ratio in the repeat runs (not every such curve was filed as active); inconclusive = weak or mixed curves, or effect the other way; inactive = no such curve, though single readings can be large or run the other way; the % refers to the signal ratio.
Lab note: assign the record to one of TRUE = active, FALSE = inactive

Please review the entries below; each comes with its answer.
## Task Which outcome did this test record for the compound COc1ccc(OC)c(CC(C)N)c1 (configuration not stated) ?
## Result FALSE

## Task Recorded call for CC1(C)CC/C(=C/c2ccc(Cl)cc2)C1(O)Cn1cncn1 (configuration not stated) ?
## Result FALSE

## Task State the result this test recorded for "O=C(Nc1ccc2[nH]ccc2c1)c1cc2cc(F)ccc2n1Cc1cccc(F)c1" .
## Result FALSE

Further cases:
## Task What did this assay record as the result for "CC(C)OC(=O)C(O)(c1ccc(Cl)cc1)c1ccc(Cl)cc1" ?
## Result TRUE

## Task Status in this test for ClC1=C(Cl)C2(Cl)C3C(Cl)C=CC3C1(Cl)C2(Cl)Cl (configuration not stated) ?
## Result FALSE

## Task Query: recorded result category for "Cc1cc(C)c(C2=C(OC(=O)CC(C)(C)C)C3(CCCC3)OC2=O)c(C)c1" in this test
## Result FALSE

## Task What is the recorded call for this compound in the test? "CCCCCCCCCCCCBr"
## Result FALSE

---

Assay: qHTS assay for small molecules that induce genotoxicity in human embryonic kidney cells expressing luciferase-tagged ATAD5 - cell viability (AID 651634); also: nearly all actives have a fitted effect of over 25% in size
Conditions: HEK293T ATAD5-luc cells viability, CellTiter-Fluor, 15.5 h; series mostly up to 83.3 µM
Records with an inconclusive call do not appear. Active and inactive are the calls of the source. The call rests on the fitted dose curve.
Just give me one of these, please: true (1) = active, false (0) = inactive

## Task What did this assay record as the result for CCCCCCCCCCCCCC[P+](CCCCCC)(CCCCCC)CCCCCC (tested in a mixture with another compound) ?
## Result true (1)

## Task Write down the call the test reported for this compound. Item: "CC(=O)C(Cl)(Cl)Cl"
## Result true (1)

## Task // outcome(item) with item = "Oc1ccc(C2(c3ccc(O)cc3)CCCCC2)cc1"
## Result false (0)

## Task For this compound, state the assay outcome: "O=[N+]([O-])O.O=[N+]([O-])O.[Cd]"
## Result true (1)

## Task Any idea what this test logged for "CCCN(CCC)c1c([N+](=O)[O-])cc(S(N)(=O)=O)cc1[N+](=O)[O-]" ?
## Result true (1)

## Task Recorded test call requested for "COP(=S)(OC)Oc1cc(Cl)c(Br)cc1Cl"
## Result false (0)

## Task Status in this test for "COC(=O)N(C(=O)N1CO[C@@]2(C(=O)OC)Cc3cc(Cl)ccc3C2=N1)c1ccc(OC(F)(F)F)cc1" ?
## Result false (0)

## Task State the result this test recorded for "CC(C)OS(C)(=O)=O" .
## Result false (0)

Others:
## Task Test call, this compound: "CC(C)CC(C)(c1ccc(O)cc1)c1ccc(O)cc1"
## Result false (0)

## Task In this assay, the call recorded for "C=CC(=O)OCCCCOC(=O)C=C" was what?
## Result true (1)

---

Test: qHTS assay for small molecules that induce genotoxicity in human embryonic kidney cells expressing luciferase-tagged ATAD5 (AID 651632); also: nearly all actives have a fitted effect of over 15% in size; as to activation: % is scaled to controls: 0 for no effect and ±100 for the full control effect
Details: HEK293T ATAD5-luciferase induction, 16 h; series mostly up to 83.3 µM
Description: U.S. Tox21 Program National Center for Advancing Translational Sciences [NCATS] NIH Chemical Genomics Center [NCGC] U.S. Environmental Protection Agency [EPA] National Institutes of Environmental Health Sciences [NIEHS] National Toxicology Program [NTP] U.S. Food and Drug Administration [FDA] Tox21 Assay Overview: As cancer cells divide rapidly and during every cell division they need to duplicate their genome by DNA replication. The failure to do so results in the cancer cell death. […]
Inconclusive results are not listed. Calls of active or inactive are those of the source. Calls follow the shape of the dose curve; as a rule, active = well fitted activation curve with a large enough effect in the repeat runs; inconclusive = weak or mixed curves; inactive = no such curve, though single readings can be large or run the other way.
Select the correct class. Options are TRUE = active, FALSE = inactive and nothing else.

Study these solved cases before continuing.
## Task Write down the call the test reported for this molecule. Item: C1CCC2CCCCC2C1 (stereo unspecified)
## Result FALSE

## Task Query: recorded result category for Clc1ccc(COC(Cn2ccnc2)c2ccc(Cl)cc2Cl)cc1 (stereo unspecified) in this test
## Result FALSE

## Task So what was the verdict on "Oc1ccc(C2(c3ccc(O)cc3)CCCCC2)cc1" in this test?
## Result FALSE

## Task Returns: the outcome recorded for "CCCOCC(=Nc1ccc(Cl)cc1C(F)(F)F)n1ccnc1" in this assay.
## Result FALSE

## Task Record lookup: outcome of this test for "CC(C)(C)c1cc([N+](=O)[O-])cc(C(C)(C)C)c1O" ?
## Result FALSE

## Task Hello, I am checking results. What call was entered for "CC(C)OC(=O)C(O)(c1ccc(Cl)cc1)c1ccc(Cl)cc1" ?
## Result FALSE

---
## Task Assay result, entry "CC(C)OC(=S)S" — outcome?
## Result FALSE

## Task Dear all, I need the recorded test outcome for "C[C@]12CC[C@@H]3c4ccc(OC(=O)N(CCCl)CCCl)cc4CC[C@H]3[C@@H]1CC[C@@H]2O" , thank you.
## Result FALSE

## Task // param item: "CS(=O)(=O)c1ccc(C(=O)C2C(=O)CCCC2=O)c([N+](=O)[O-])c1" ; yields the recorded call
## Result FALSE

## Task Dear all, I need the recorded test outcome for "CCCN(CCC)c1c([N+](=O)[O-])cc(S(N)(=O)=O)cc1[N+](=O)[O-]" , thank you.
## Result FALSE

## Task Could you check what this test reported for "COP(=S)(OC)Oc1cc(Cl)c(Br)cc1Cl" ?
## Result FALSE

## Task Recorded call for "Nc1ccccc1C(=O)Oc1ccc2ccccc2c1" ?
## Result TRUE

## Task Returns: the outcome recorded for "C[C@@H]1O[C@@H](O[C@H]2C[C@@H](O)[C@]3(CO)[C@H]4[C@H](O)C[C@]5(C)[C@@H](C6=CC(=O)OC6)CC[C@]5(O)[C@@H]4CC[C@]3(O)C2)[C@H](O)[C@H](O)[C@H]1O" in this assay.
## Result FALSE

## Task Called result for "O=C(NC(=O)c1c(F)cccc1F)Nc1cc(Cl)c(OC(F)(F)C(F)F)c(Cl)c1"
## Result FALSE

## Task // return assay outcome for "c1ccc2cc3c(cc2c1)-c1cccc2cccc-3c12"
## Result FALSE

## Task Would you mind telling me which call this test gave "CC(C)OS(C)(=O)=O" ?
## Result FALSE
